Listing of entries alongside the reported herbicidal effect rating, ECHORC.
- Test system: Echinochloa oryzoides (Ard.) Fritsch.
- assayComment: Preemergence weed control under flooded paddy conditions, ECHORC (Watergrass (Calif.)); note: meaning of each grade not given here
- Type: in vivo
- appliedConditions: Rate 0.1250 kg/ha; preemergence weeds, flooded paddy; rated three to four weeks after treatment
Respond numerically, and do not add a unit to the figure.

Please state recorded herbicidal effect rating, ECHORC (tested on Echinochloa oryzoides (Ard.) Fritsch.) of COc1cccc(-c2nsc3ccc(-n4c(=O)cc(C(F)(F)F)n(C)c4=O)cc23)c1
9.0

Please state recorded herbicidal effect rating, ECHORC (tested on Echinochloa oryzoides (Ard.) Fritsch.) of C#CCOC(=O)COc1cccc(-c2nsc3ccc(-n4c(=O)cc(C(F)(F)F)n(C)c4=O)cc23)c1
9.0

Please state recorded herbicidal effect rating, ECHORC (tested on Echinochloa oryzoides (Ard.) Fritsch.) of Cn1c(C(F)(F)F)cc(=O)n(-c2ccc3snc(C(=O)Oc4ccccc4)c3c2)c1=O
9.0

Please state recorded herbicidal effect rating, ECHORC (tested on Echinochloa oryzoides (Ard.) Fritsch.) of CC(Oc1ccccc1-c1nsc2ccc(-n3c(=O)cc(C(F)(F)F)n(C)c3=O)cc12)C(=O)O (stereo not shown)
9.0

Please state recorded herbicidal effect rating, ECHORC (tested on Echinochloa oryzoides (Ard.) Fritsch.) of COC(=O)C(C)Oc1cccc(-c2nsc3ccc(-n4c(=O)cc(C(F)(F)F)n(C)c4=O)cc23)c1 (stereo not shown)
9.0

Please state recorded herbicidal effect rating, ECHORC (tested on Echinochloa oryzoides (Ard.) Fritsch.) of Cn1c(C(F)(F)F)cc(=O)n(-c2ccc3snc(C(=O)CCl)c3c2)c1=O
4.0

Please state recorded herbicidal effect rating, ECHORC (tested on Echinochloa oryzoides (Ard.) Fritsch.) of CNC.Cn1c(C(F)(F)F)cc(=O)n(-c2ccc3snc(CSCC(=O)O)c3c2)c1=O
2.0

###

- System: Cyperus iria
- assayComment: Preemergence weed control under flooded paddy conditions, CYPIR (Rice Flatsedge)
- Type: in vivo
- appliedConditions: 0.1250 kg/ha; preemergence weeds, flooded paddy; herbicidal effect rating 0-9, three to four weeks after treatment
Listing of entries alongside the reported CYPIR.
Respond numerically, and do not add a unit to the figure.

These solved cases illustrate the format of a correct answer.
CCC(C#N)(CC)c1nsc2ccc(-n3c(=O)cc(C(F)(F)F)n(C)c3=O)cc12: 9.0
CC(=O)OCCCSC(SCCCOC(C)=O)c1nsc2ccc(-n3c(=O)cc(C(F)(F)F)n(C)c3=O)cc12: 7.0
C#CCOC(=O)COc1cc2c(cc1-c1nsc3ccc(-n4c(=O)cc(C(F)(F)F)n(C)c4=O)cc13)CCC2: 7.0
COC(=O)CN(C(=O)c1nsc2ccc(-n3c(=O)cc(C(F)(F)F)n(C)c3=O)cc12)S(=O)(=O)Cc1ccccc1: 9.0

Kindly review the next molecule as well.
What value of measured CYPIR is listed for CN(C)/N=C/c1nsc2ccc(-n3c(=O)cc(C(F)(F)F)n(C)c3=O)cc12 ?
9.0

###

- System: Oryza sativa, (L.) Tebonnet
- assayComment: Rice tolerance to post-transplant applications under flooded paddy conditions (Example 187), ORYSAT (Rice, Tebonnet)
- appliedConditions: 0.0620 kg/ha, rated three to four weeks after treatment
One threshold, 4, splits the recorded ORYSAT herbicidal rating (rice tolerance) values: lower ones are Fulfilled, equal or higher ones are Not fulfilled.

Below, 3 molecules whose answers are already recorded.
Cn1c(C(F)(F)F)cc(=O)n(-c2ccc3snc(C(C)(C)C(=O)O)c3c2)c1=O [Example 466]: Not fulfilled
CC(C)N(C(C)C)S(=O)(=O)NC(=O)c1nsc2ccc(-n3c(=O)cc(C(F)(F)F)n(C)c3=O)cc12 [Example 500]: Fulfilled
Cc1ccccc1CS(=O)(=O)NC(=O)c1nsc2ccc(-n3c(=O)cc(C(F)(F)F)n(C)c3=O)cc12 [Example 465]: Fulfilled

Quick check: ORYSAT herbicidal rating (rice tolerance) of Cc1ccc(OC(C)(C)C(=O)OC(C)(C)C)c(-c2nsc3ccc(-n4c(=O)cc(C(F)(F)F)n(C)c4=O)cc23)c1 [Example 514] under 4?
Fulfilled

Quick check: ORYSAT herbicidal rating (rice tolerance) of Cn1c(C(F)(F)F)cc(=O)n(-c2ccc3snc(COCOCc4ccccc4)c3c2)c1=O [Example 461] under 4?
Not fulfilled

Quick check: ORYSAT herbicidal rating (rice tolerance) of CC(C)OC(=O)C(C)(C)c1nsc2ccc(-n3c(=O)cc(C(F)(F)F)n(C)c3=O)cc12 [Example 489] under 4?
Not fulfilled

Quick check: ORYSAT herbicidal rating (rice tolerance) of COC(=O)C(C)Oc1cc(Cl)c(C)cc1-c1nsc2ccc(-n3c(=O)cc(C(F)(F)F)n(C)c3=O)cc12 (stereo not drawn) [Example 492] under 4?
Fulfilled

Quick check: ORYSAT herbicidal rating (rice tolerance) of CSCOCc1nsc2ccc(-n3c(=O)cc(C(F)(F)F)n(C)c3=O)cc12 [Example 484] under 4?
Not fulfilled

Quick check: ORYSAT herbicidal rating (rice tolerance) of Cn1c(C(F)(F)F)cc(=O)n(-c2ccc3snc(C(=O)NS(=O)(=O)CCc4ccccc4)c3c2)c1=O [Example 485] under 4?
Fulfilled

Quick check: ORYSAT herbicidal rating (rice tolerance) of COCOCc1nsc2ccc(-n3c(=O)cc(C(F)(F)F)n(C)c3=O)cc12 [Example 478] under 4?
Not fulfilled

Quick check: ORYSAT herbicidal rating (rice tolerance) of Cn1c(C(F)(F)F)cc(=O)n(-c2ccc3snc(C(C)(C)C(=O)OCc4ccccn4)c3c2)c1=O [Example 510] under 4?
Fulfilled

Quick check: ORYSAT herbicidal rating (rice tolerance) of COC(=O)C(C)(C)c1nsc2ccc(-n3c(=O)cc(C(F)(F)F)n(C)c3=O)cc12 [Example 490] under 4?
Not fulfilled

Quick check: ORYSAT herbicidal rating (rice tolerance) of COc1cc(Cl)c(C)cc1-c1nsc2ccc(-n3c(=O)cc(C(F)(F)F)n(C)c3=O)cc12 [Example 506] under 4?
Fulfilled

###

Listing of entries alongside the reported ORYSAT herbicidal effect rating.
- Test system: Oryza sativa, (L.) Tebonnet
- assayComment: Rice tolerance to post-transplant applications under flooded paddy conditions (Example 187), ORYSAT (Rice, Tebonnet)
- appliedConditions: Rate 0.0620 kg/ha, rated three to four weeks after treatment

These solved cases illustrate the format of a correct answer.
CNC.Cn1c(C(F)(F)F)cc(=O)n(-c2ccc3snc(COCC(=O)NS(C)(=O)=O)c3c2)c1=O [Example 295]: 0.0
CCOc1ccc2sc(S(=O)(=O)NC(=O)COc3ccc(C)cc3-c3nsc4ccc(-n5c(=O)cc(C(F)(F)F)n(C)c5=O)cc34)nc2c1 [Example 289]: 0.0

What value of measured ORYSAT herbicidal effect rating is listed for C#CCOC(=O)COc1ccc(-c2nsc3ccc(-n4c(=O)cc(C(F)(F)F)n(C)c4=O)cc23)cc1 [Example 259] ?
1.0

###

- System: Echinochloa oryzoides (Ard.) Fritsch.
- assayComment: Preemergence weed control under flooded paddy conditions, ECHORC (Watergrass (Calif.)); note: meaning of each grade not given here
- Format: in vivo
- appliedConditions: Rate 0.0620 kg/ha; preemergence, flooded paddy; rated 3-4 weeks after treatment
herbicidal effect rating, ECHORC of 4 or higher: 1.0. Under 4: 0.0.

Below, 6 compounds whose answers are already recorded.
CC=CCOC(=O)C(C)(C)Oc1ccc(C)cc1-c1nsc2ccc(-n3c(=O)cc(C(F)(F)F)n(C)c3=O)cc12 [Example 529]: 1.0
COCCOC(=O)C(C)(C)Oc1ccc(C)cc1-c1nsc2ccc(-n3c(=O)cc(C(F)(F)F)n(C)c3=O)cc12 [Example 546]: 1.0
CCCS(=O)(=O)NC(=O)COc1ccc(C)cc1-c1nsc2ccc(-n3c(=O)cc(C(F)(F)F)n(C)c3=O)cc12 [Example 552]: 0.0
CSCCCCOC(=O)COc1ccc(C)cc1-c1nsc2ccc(-n3c(=O)cc(C(F)(F)F)n(C)c3=O)cc12 [Example 518]: 0.0
CC/C=C/CCCCCCCCCCOC(=O)COc1ccc(C)cc1-c1nsc2ccc(-n3c(=O)cc(C(F)(F)F)n(C)c3=O)cc12 [Example 526]: 0.0
CCOC(=O)C1CCC(OC(=O)COc2ccc(C)cc2-c2nsc3ccc(-n4c(=O)cc(C(F)(F)F)n(C)c4=O)cc23)CC1 (single isomer, unassigned; isomer b) [Example 525]: 1.0

I'd appreciate it if you could say whether Cc1ccc(OCC(=O)c2ccccc2)c(-c2nsc3ccc(-n4c(=O)cc(C(F)(F)F)n(C)c4=O)cc23)c1 [Example 537] has herbicidal effect rating, ECHORC at least equal to 4.
1.0

I'd appreciate it if you could say whether Cn1c(C(F)(F)F)cc(=O)n(-c2ccc3snc(-c4ccccc4OCC(N)=O)c3c2)c1=O [Example 548] has herbicidal effect rating, ECHORC at least equal to 4.
0.0

I'd appreciate it if you could say whether Cc1ccc(OCC(=O)OCCCCCO[Si](C)(C)C(C)(C)C)c(-c2nsc3ccc(-n4c(=O)cc(C(F)(F)F)n(C)c4=O)cc23)c1 [Example 534] has herbicidal effect rating, ECHORC at least equal to 4.
1.0

Data origin: patent EP0908457B1
